# assay_system: SARS-CoV-2 spike protein on live virus, strain USA-WA1/2020 (SARS-CoV-2, WA01/2020 strain, UniProt P0DTC2 14-1273)
# protocol_notes: cell-based or functional assay
property_label: Live Neut, WA1/2020 IC50 (pM)
Give bare numbers, in pM.

Some entries whose results are on file:
binder="antibody 2050 (antibody, V domains shown) VH: QVQLVQSGAEVKKPGASVKVPCKVSGYTFTDHFIHWVRQAPGQGLEWMGWISPNSGGRNYTQKFQGRVTLTRDTAITTVHMDLSSLTPDDTAVYYCARDVRWAQLQGGFDLWGQGTMVTVSS VL: QSALTQPASVSGSPGQSITISCTGTSSDVGSYNLVSWYQQHPGKAPKLMIYEVSKRPSGVSNRFSGSKSGNTASLTISGLQADDEADYYCCSYAGDNNFLFGGGTSLTVL" measured_number=36
binder="antibody 980 (antibody, V domains shown) VH: QVQLVESGGGVVQPGRSLRLSCAASGFTFSRYGMHWVRQAPGKGLEWVALISSGGSNKYYADSVKGRFTISRDNSKNTLYLEMNSLRAEDTAVYYCAKDAIYDYIWGAYRENWFDPWGQGTLVTVSS VL: DIQMTQSPSSLSASVGDRVTITCRASQSISNYLNWYQQKPGKAPNLLIYAASSLQSGVPSRFSGSGSGTDFTLTISSLQPEDFATYYCQQTSSPPLTFGQGTKVEIK" measured_number=25

Turning to the following binder.
Inquiry: Given antibody 2854 (antibody, V domains shown) VH: QVQLVQSGAEVKKPGSSVKVSCKASGGTFSSYAISWVRQAPGQGLEWMGGIIPIFHTANYAQKFQGRVTITADESTSTTYVELSSLRSEDTAMYYCATLPITIFGEEYSFDNWGQGTLVTVSS VL: DVVMTQSPLSLPVTLGQPASISCRSSQSLVHSDGNTYLSWFQQRPGQSPRRLIYKVSDRDSGVPDRFSGSGSGTDFTLKISRVEAEDVGIYYCMQGTHWPPLTFGGGTKVEIK , respond with its Live Neut, WA1/2020 IC50 (pM).
Reply text: 164

The reported numbers originate from patent US20230382979A1.
